Molecular target: T1, human ACVR2A (human, UniProt P27037 20-135, limits assumed); also: test concentration or dose not given here
T1 construct: also called activin receptor, type II A
T1 sequence (P27037 20-135 limits assumed): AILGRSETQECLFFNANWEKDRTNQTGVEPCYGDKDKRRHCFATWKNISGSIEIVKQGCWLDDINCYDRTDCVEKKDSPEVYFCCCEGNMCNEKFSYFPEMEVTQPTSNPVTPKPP
Assay: ELISA
In this section, each of the binders is paired with its reported optical density.
Provide the reading as a plain figure in OD.

{"binder": "374_D11 (antibody, V domains shown, VH and VL only) VH: EVQLLESGGGLVQPGGSLRLSCAASGFTFDSYGMNWVRQAPGKGLEWVSNINYNSGYTGYADSVKGRFTISRDNSKNTLYLQMNSLRAEDTAVYYCARSATWHDTHLDYWGQGTLVTVSS VL: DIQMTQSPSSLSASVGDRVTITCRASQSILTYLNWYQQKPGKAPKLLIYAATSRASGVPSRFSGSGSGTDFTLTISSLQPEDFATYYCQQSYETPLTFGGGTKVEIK", "optical density (OD)": 3.64}
{"binder": "367_A11 (antibody, V domains shown, VH and VL only) VH: EVQLLESGGGLVQPGGSLRLSCAASGFTFSSYGMHWVRQAPGKGLEWVSGINYNGGYTSYADSVKGRFTISRDNSKNTLYLQMNSLRAEDTAVYYCARSATWHDTHLDYWGQGTLVTVSS VL: DIQMTQSPSSLSASVGDRVTITCRASQSILSYVNWYQQKPGKAPKLVIYATTSLASGVPSRFSGSGSGTDFTLTISSLQPEDFATYYCQQSYNSPLTFGGGTKVEIK", "optical density (OD)": 2.34}
{"binder": "365_A02 (antibody, V domains shown, VH and VL only) VH: EVQLLESGGGLVQPGGSLRLSCAASGFTFDSYSMNWVRQAPGKGLEWVSNINYNGGYTSYADSVKGRFTISRDNSKNTLYLQMNSLRAEDTAVYYCARSATWHDTHLDYWGQGTLVTVSS VL: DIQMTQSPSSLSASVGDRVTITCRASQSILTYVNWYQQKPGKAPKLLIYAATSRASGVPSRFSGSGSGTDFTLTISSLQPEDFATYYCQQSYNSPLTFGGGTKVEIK", "optical density (OD)": 3.03}
{"binder": "368_G08 (antibody, V domains shown, VH and VL only) VH: EVQLLESGGGLVQPGGSLRLSCAASGFTFDDYGMNWVRQAPGKGLEWVSSINYNSGYKSYADSVKGRFTISRDNSKNTLYLQMNSLRAEDTAVYYCARSATWHDTHLDYWGQGTLVTVSS VL: DIQMTQSPSSLSASVGDRVTITCRASQSIVSYVNWYQQKPGKAPKLLIYAATSRHSGVPSRFSGSGSGTDFTLTISSLQPEDFATYYCQQSYNNPLTFGGGTKVEIK", "optical density (OD)": 1.6}

We next turn to a different binder, shown below.
Reported optical density for 375_F01 (antibody, V domains shown, VH and VL only) VH: EVQLLESGGGLVQPGGSLRLSCAASGFTFSSYSMNWVRQAPGKGLEWVSSINYNSGYTGYADSVKGRFTISRDNSKNTLYLQMNSLRAEDTAVYYCARSATWHDTHLDYWGQGTLVTVSS VL: DIQMTQSPSSLSASVGDRVTITCRASQSIVSYLNWYQQKPGKAPKLVIYAATSRASGVPSRFSGSGSGTDFTLTISSLQPEDFATYYCQQSYDNPLTFGGGTKVEIK : what is it?
3.16

Values compiled from patent US20210380703A1.
